- Tested on: Raji
- PROTOCOL_NOTES: Inhibition of 12-O-tetradecanoylphorbol-13-acetate induced EBV-early antigen activation in human Raji cells assessed as EA activation at 10 molar ratio relative to TPA
- Type: cell-based
- Design: scale not given: the % may be the effect or the level left
- CONDITION: human gammaherpesvirus 4
Reported Activity values are given for each entry in this list.
All answers are understood in %, so give the number only.

Examples from the recorded data:
# SMILES_INPUT, TARGET_DESC, UNIT_LABEL, RECORDED_NUMBER
records = [
    ("COc1cc2c(cc1OC)[C@@H]1C(=O)c3ccc4c(c3O[C@@H]1CO2)C[C@H](C(C)(C)O[C@@H]1O[C@H](CO)[C@@H](O)[C@H](O)[C@H]1O)O4", "Raji", "%", 100),
    ("COc1cc2c(cc1OC)[C@]1(O)C(=O)c3ccc4c(c3O[C@@H]1CO2)C[C@H](C(C)(C)O)O4", "Raji", "%", 100),
    ("COC1=CC(=O)[C@]2(C=C1OC)OC[C@H]1Oc3c(ccc4c3C=CC(C)(C)O4)C(=O)[C@H]12", "Raji", "%", 100),
]

get_value(item= `COc1cc2c(cc1OC)[C@]1(O)C(=O)c3ccc4c(c3O[C@@H]1CO2)C=CC(C)(C)O4` , readout=Activity) returns 89.3

Item: `C=C(CO)[C@H]1Cc2c(ccc3c2O[C@@H]2COc4cc(OC)c(OC)cc4[C@]2(O)C3=O)O1` | Activity: 100

The compound `C=C(CO)[C@H]1Cc2c(ccc3c2O[C@@H]2COc4cc(OC)c(OC)cc4[C@@H]2C3=O)O1` showed Activity equal to 100

* * *

Quick reference: viability at 1000 molar ratio of the listed items.
- PROTOCOL_NOTES: Cytotoxicity against human Raji cells assessed as cell viability at 1000 molar ratio
- Type: cell-based
- CONDITION: read-out: Activity
Field format: number, assumed %, no unit text.

Short answer for C=C(CO)[C@H]1Cc2c(ccc3c2O[C@@H]2COc4cc(OC)c(OC)cc4[C@]2(O)C3=O)O1 [DABINOL] : viability at 1000 molar ratio was 80

Field viability at 1000 molar ratio (entry `COc1cc2c(cc1OC)[C@@H]1C(=O)c3ccc4c(c3O[C@@H]1CO2)C[C@H](C(C)(C)O[C@@H]1O[C@H](CO)[C@@H](O)[C@H](O)[C@H]1O)O4` ) reads 80

Please fill in: viability at 1000 molar ratio reported for C=C(CO)[C@H]1Cc2c(ccc3c2O[C@@H]2COc4cc(OC)c(OC)cc4[C@@H]2C3=O)O1 [AMORPHIGENIN] = 80

Recorded result, COC1=CC(=O)[C@]2(C=C1OC)OC[C@H]1Oc3c(ccc4c3C=CC(C)(C)O4)C(=O)[C@H]12 [AMORPHISPIRONONE] , viability at 1000 molar ratio: 20

Per the record, `COc1cc2c(cc1OC)[C@]1(O)C(=O)c3ccc4c(c3O[C@@H]1CO2)C[C@H](C(C)(C)O)O4` has viability at 1000 molar ratio of 80

The compound listed as COc1cc2c(cc1OC)[C@]1(O)C(=O)c3ccc4c(c3O[C@@H]1CO2)C=CC(C)(C)O4 [TEPHROSIN] has a reported viability at 1000 molar ratio of 40

* * *

- PROTOCOL_NOTES: Cytotoxicity against human Raji cells assessed as cell viability at 100 molar ratio
- Type: cell-based
- CONDITION: read-out: Activity
MEASURED_METRIC: viability at 100 molar ratio (%)
Respond numerically; units are % and should not be typed.

// solved cases for viability at 100 molar ratio follow
# SMILES_INPUT, RECORDED_NUMBER
data = [
    ("C=C(CO)[C@H]1Cc2c(ccc3c2O[C@@H]2COc4cc(OC)c(OC)cc4[C@@H]2C3=O)O1", 80),
    ("COc1cc2c(cc1OC)[C@]1(O)C(=O)c3ccc4c(c3O[C@@H]1CO2)C[C@H](C(C)(C)O)O4", 80),
    ("COC1=CC(=O)[C@]2(C=C1OC)OC[C@H]1Oc3c(ccc4c3C=CC(C)(C)O4)C(=O)[C@H]12", 80),
]

Item: `COc1cc2c(cc1OC)[C@@H]1C(=O)c3ccc4c(c3O[C@@H]1CO2)C[C@H](C(C)(C)O[C@@H]1O[C@H](CO)[C@@H](O)[C@H](O)[C@H]1O)O4` | viability at 100 molar ratio: 80

Recorded viability at 100 molar ratio (molecule `COc1cc2c(cc1OC)[C@]1(O)C(=O)c3ccc4c(c3O[C@@H]1CO2)C=CC(C)(C)O4` ): 70

viability at 100 molar ratio in this record for `C=C(CO)[C@H]1Cc2c(ccc3c2O[C@@H]2COc4cc(OC)c(OC)cc4[C@]2(O)C3=O)O1` : 80
